B1: CD2-associated protein, residues 271 to 331; numbered along this chain, Q9Y5K6 (parent)
chain: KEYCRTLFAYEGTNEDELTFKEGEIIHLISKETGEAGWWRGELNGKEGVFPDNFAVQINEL

Variants of: B1
Assay text: abundance fitness (aPCA) (normalised: wild type 0, dead -1); higher = more abundant; growth selection in yeast, the domain comes from the species named
Condition: Homo sapiens
As shown below, each of these variants has a reported abundance fitness value.
Quick one: just the number, no unit, thanks!

Some solved entries appear below for comparison.
N14E
-0.159
G41A
-0.703

# input for lookup
*Q* Kindly indicate its recorded abundance fitness. Item: S30W
*A* -0.957

src = the Human Domainome abundance scans (Beltran et al. 2025)
